assay: Toxicity evaluation on mice not bearing tumor (CBC, serum chemistry, pathology); assay type: in vivo, C57BL/6 mice; conditions: not tumor-bearing C57BL/6 mice, n = 3, daily i.p., 5 days; control 36.6 ± 0.08
Assay Metric: HCT (%)
// note: answer is a bare numeric in %

Challenge: Entry COc1cccc2c1CCCC2CCCN1CCC(C2CCCCC2)CC1 (stereo not shown) [PB221] : reported HCT = ?
Response given: 50.35

Challenge: # iterate: Fc1cccc(F)c1[C@H]1CC[C@@H](N2CCN(C3CCCCC3)CC2)CC1 [PB282]
Response given: 51.1

Challenge: # iterate: COc1cccc2c1CCCC2CCCN1CCN(C2CCCCC2)CC1 (stereo not shown) [PB28]
Response given: 53.4

Challenge: # iterate: COc1cccc2c(CCCN3CCN(C4CCCCC4)CC3)cccc12 [PB183]
Response given: 48.8

---

test system: AsPC-1 cells; experiment: MTT cell viability, AsPC-1; assay type: cell-based; settings: Homo sapiens, ASPC1, 24 h treatment, viability relative to vehicle
pEC50: −log10 of the molar value.
Assay Metric: pEC50

Challenge: Give recorded pEC50 with AsPC-1 cells for the following compound: COc1cccc2c1CCCC2CCCN1CCC(C2CCCCC2)CC1 (centres unmarked)
Response given: < 4.00

Challenge: # iterate: COc1cccc2c1CCCC2CCCN1CCN(C2CCCCC2)CC1 (centres unmarked)
Response given: < 4.00

Challenge: # iterate: COc1cccc2c(CCCN3CCN(C4CCCCC4)CC3)cccc12
Response given: < 4.00

Challenge: # iterate: Fc1cccc(F)c1[C@H]1CC[C@@H](N2CCN(C3CCCCC3)CC2)CC1
Response given: < 4.00

Challenge: # iterate: c1ccc2c(c1)c1ccccc1n2CCCN1CCN(C2CCCCC2)CC1
Response given: 4.01

---

test: Toxicity evaluation on mice not bearing tumor (CBC, serum chemistry, pathology); format: in vivo, C57BL/6 mice; conditions: not tumor-bearing C57BL/6 mice, n = 3, daily i.p., 5 days; control 10.58 ± 0.2
Task for the reader: assign each of the following compounds its reported WBC.

Challenge: Entry COc1cccc2c(CCCN3CCN(C4CCCCC4)CC3)cccc12 [PB183] : reported WBC = ?
Response given: 6.42 ± 1.22 10^3/μL

Challenge: # iterate: Fc1cccc(F)c1[C@H]1CC[C@@H](N2CCN(C3CCCCC3)CC2)CC1 [PB282]
Response given: 5.78 ± 0.78 10^3/μL

Challenge: # iterate: COc1cccc2c1CCCC2CCCN1CCC(C2CCCCC2)CC1 (stereo not shown) [PB221]
Response given: 8.12 ± 0.14 10^3/μL

Challenge: # iterate: COc1cccc2c1CCCC2CCCN1CCN(C2CCCCC2)CC1 (stereo not shown) [PB28]
Response given: 11.11 ± 1.97 10^3/μL

---

assay: Toxicity evaluation on mice not bearing tumor (CBC, serum chemistry, pathology); type: in vivo, C57BL/6 mice; conditions: not tumor-bearing C57BL/6 mice, n = 3, daily i.p., 5 days; control 486 ± 67
Task for the reader: assign each of the following compounds its reported Platelets.

Challenge: Entry Fc1cccc(F)c1[C@H]1CC[C@@H](N2CCN(C3CCCCC3)CC2)CC1 : reported Platelets = ?
Response given: 649.5 ± 167.5 10^3/μL

Challenge: # iterate: COc1cccc2c1CCCC2CCCN1CCC(C2CCCCC2)CC1 (stereo not shown)
Response given: 563 ± 17 10^3/μL

Challenge: # iterate: COc1cccc2c1CCCC2CCCN1CCN(C2CCCCC2)CC1 (stereo not shown)
Response given: 643.5 ± 95.5 10^3/μL

Challenge: # iterate: COc1cccc2c(CCCN3CCN(C4CCCCC4)CC3)cccc12
Response given: 727.5 ± 65.5 10^3/μL

---

system: KP02 cells; test: MTT cell viability, KP02; type: cell-based, mouse; conditions: 24 h treatment, viability relative to vehicle
Assay Metric: pEC50
Please keep in mind that pEC50 is minus log10 of the molar concentration; only the number is needed.

Challenge: Entry c1ccc2c(c1)c1ccccc1n2CCCN1CCN(C2CCCCC2)CC1 : reported pEC50 = ?
Response given: 4.31

---

assay: Toxicity evaluation on mice not bearing tumor (CBC, serum chemistry, pathology); format: in vivo, C57BL/6 mice; details: not tumor-bearing C57BL/6 mice, n = 3, daily i.p., 5 days; control 51.2 ± 0.32
Task for the reader: assign each of the following compounds its reported MCV.
// note: answer is a bare numeric in fL

Challenge: Entry COc1cccc2c(CCCN3CCN(C4CCCCC4)CC3)cccc12 : reported MCV = ?
Response given: 52.9

Challenge: # iterate: Fc1cccc(F)c1[C@H]1CC[C@@H](N2CCN(C3CCCCC3)CC2)CC1
Response given: 51.55

Challenge: # iterate: COc1cccc2c1CCCC2CCCN1CCC(C2CCCCC2)CC1 (stereo not shown)
Response given: 52.5

Challenge: # iterate: COc1cccc2c1CCCC2CCCN1CCN(C2CCCCC2)CC1 (stereo not shown)
Response given: 52.15

---

Task for the reader: assign each of the following molecules its reported EC50.
tested on: Panc02 cells; assay: MTT cell viability, Panc02; assay type: cell-based; details: Mus musculus, 24 h treatment, viability relative to vehicle
// note: answer is a bare numeric in µM

Challenge: Entry COc1cccc2c1CCCC2CCCN1CCN(C2CCCCC2)CC1 (centres unmarked) : reported EC50 = ?
Response given: 43

Challenge: # iterate: COc1cccc2c(CCCN3CCN(C4CCCCC4)CC3)cccc12
Response given: 83

Challenge: # iterate: c1ccc2c(c1)c1ccccc1n2CCCN1CCN(C2CCCCC2)CC1
Response given: 37

Challenge: # iterate: COc1cccc2c1CCCC2CCCN1CCC(C2CCCCC2)CC1 (centres unmarked)
Response given: 37

---

assay: Toxicity evaluation on mice not bearing tumor (CBC, serum chemistry, pathology); type: in vivo, C57BL/6 mice; conditions: not tumor-bearing C57BL/6 mice, n = 3, daily i.p., 5 days; control 10.7 ± 0.7
Task for the reader: assign each of the following compounds its reported HGB.
Give the number first and the unit second.

Challenge: Entry COc1cccc2c1CCCC2CCCN1CCN(C2CCCCC2)CC1 (stereo not shown) [PB28] : reported HGB = ?
Response given: 15.65 ± 0.55 g/dL

Challenge: # iterate: Fc1cccc(F)c1[C@H]1CC[C@@H](N2CCN(C3CCCCC3)CC2)CC1 [PB282]
Response given: 15 ± 0.4 g/dL

Challenge: # iterate: COc1cccc2c(CCCN3CCN(C4CCCCC4)CC3)cccc12 [PB183]
Response given: 14.85 ± 1.35 g/dL

Challenge: # iterate: COc1cccc2c1CCCC2CCCN1CCC(C2CCCCC2)CC1 (stereo not shown) [PB221]
Response given: 14.7 ± 0.8 g/dL

---

experiment: Toxicity evaluation on mice not bearing tumor (CBC, serum chemistry, pathology); assay type: in vivo, C57BL/6 mice; conditions: not tumor-bearing C57BL/6 mice, n = 3, daily i.p., 5 days; control 27 ± 0.4
Task for the reader: assign each of the following compounds its reported BUN.
Give the number first and the unit second.

Challenge: Entry Fc1cccc(F)c1[C@H]1CC[C@@H](N2CCN(C3CCCCC3)CC2)CC1 [PB282] : reported BUN = ?
Response given: 24.5 ± 0.5 mg/dL

Challenge: # iterate: COc1cccc2c1CCCC2CCCN1CCN(C2CCCCC2)CC1 (stereo not shown) [PB28]
Response given: 32 ± 1 mg/dL

Challenge: # iterate: COc1cccc2c1CCCC2CCCN1CCC(C2CCCCC2)CC1 (stereo not shown) [PB221]
Response given: 30.5 ± 3.5 mg/dL

Challenge: # iterate: COc1cccc2c(CCCN3CCN(C4CCCCC4)CC3)cccc12 [PB183]
Response given: 21 ± 2 mg/dL

---

assay: Toxicity evaluation on mice not bearing tumor (CBC, serum chemistry, pathology); type: in vivo, C57BL/6 mice; details: not tumor-bearing C57BL/6 mice, n = 3, daily i.p., 5 days; control 15 ± 0.54
Assay Metric: MCH (pg)
// note: answer is a bare numeric in pg

Challenge: Entry Fc1cccc(F)c1[C@H]1CC[C@@H](N2CCN(C3CCCCC3)CC2)CC1 [PB282] : reported MCH = ?
Response given: 15.15

Challenge: # iterate: COc1cccc2c1CCCC2CCCN1CCN(C2CCCCC2)CC1 (stereo not shown) [PB28]
Response given: 15.3

Challenge: # iterate: COc1cccc2c1CCCC2CCCN1CCC(C2CCCCC2)CC1 (stereo not shown) [PB221]
Response given: 15.35

Challenge: # iterate: COc1cccc2c(CCCN3CCN(C4CCCCC4)CC3)cccc12 [PB183]
Response given: 16.1

---

Assay: Toxicity evaluation on mice not bearing tumor (CBC, serum chemistry, pathology)
Format: in vivo, C57BL/6 mice
Conditions: not tumor-bearing C57BL/6 mice, n = 3, daily i.p., 5 days; control 29.2 ± 1.21
Method: […] Mice from each treatment cohort were assessed for pathologic evaluation (Digestive Diseases Research Core Center at our institution). Blood was collected for complete blood count (CBC) and biochemical analysis (AST, ALT, BUN, total protein, glucose and Cr). Organs were examined grossly and histologically.
Task for the reader: assign each of the following compounds its reported MCHC.
// note: answer is a bare numeric in %

Challenge: Entry COc1cccc2c1CCCC2CCCN1CCN(C2CCCCC2)CC1 (stereo not shown) : reported MCHC = ?
Response given: 29.3

Challenge: # iterate: Fc1cccc(F)c1[C@H]1CC[C@@H](N2CCN(C3CCCCC3)CC2)CC1
Response given: 29.4

Challenge: # iterate: COc1cccc2c(CCCN3CCN(C4CCCCC4)CC3)cccc12
Response given: 30.4

Challenge: # iterate: COc1cccc2c1CCCC2CCCN1CCC(C2CCCCC2)CC1 (stereo not shown)
Response given: 29.25
